Experiment: pH-dependent solubility in USP buffers
Assay type: physicochemical
Settings: standard USP buffer, aqueous buffer; between pH 5 and 7, 24 h
quantity: solubility thermodynamic at 24 h

Which measured solubility thermodynamic at 24 h value corresponds to C/C(=N\c1ccc(O)cc1)c1cc2ccccc2n1C [GT-14] ?
< 10 µg/mL

---

Test: Tissue distribution and urinary excretion after IV dose in rats
Type: in vivo, Sprague Dawley rats
Conditions: male, Sprague Dawley, prostate; rat, IV 5 mg/kg, 24 hr post dose; read-out: Tissue concentration, prostate
quantity: concentration at 24 h
Give the number first and the unit second.

Which measured concentration at 24 h value corresponds to C/C(=N\c1ccc(O)cc1)c1cc2ccccc2n1C [GT-14] ?
2.19 ng/g
